Taken from patent US6255347A.

system: APPs secretion by NIH 3T3 cell lines; conditions: 50 μM, 20 h culture, n = 2, mean ± S.D.
So I've got a bunch of molecules here, and I need their Density of APPs band values.
Write the number on its own, no unit after it.

Asked: Query (molecule): CC(C(=O)O)c1cccc(Oc2ccccc2)c1 (racemic) [RS-Fenoprofen] ; field requested: Density of APPs band
Given back: 6.36

Asked: Query (molecule): C[C@H](C(=O)O)c1cccc(Oc2ccccc2)c1 [S-Fenoprofen] ; field requested: Density of APPs band
Given back: 5.32

Asked: Query (molecule): C[C@@H](C(=O)O)c1cccc(Oc2ccccc2)c1 [R-Fenoprofen] ; field requested: Density of APPs band
Given back: 5.32

Asked: Query (molecule): CN1C(C(=O)Nc2ccccn2)=C(O)c2ccccc2S1(=O)=O [Proxicam] ; field requested: Density of APPs band
Given back: 3.29

Asked: Query (molecule): CC(C(=O)O)c1ccc(-c2ccccc2)c(F)c1 (racemic) [RS-Flubiprofen] ; field requested: Density of APPs band
Given back: 3.07

----------
assay: Estimated unbound fraction of ibuprofen in culture media; type: in vitro ADME
measured endpoint: fraction unbound

Asked: Query (compound): CC(C)Cc1ccc(C(C)C(=O)O)cc1 (stereo not drawn) [ibuprofen, α-4-(2-methylpropyl) benzeneacetic acid] ; field requested: fraction unbound
Given back: ~0.05
